assay: PK studies in mice; assay type: in vivo, BALB/c female mice; details: female, BALB/c, mouse, plasma, iv, 2 mg/kg
measurement_label: clearance (mL/min/kg)
# number only, unit mL/min/kg dropped from output

Need clearance of CC(C)=CC(=O)Nc1ccc(C2=C(c3ccc(O)cc3)C3OC2CC3S(=O)(=O)N(CC(F)(F)F)c2ccc(O)cc2)cc1 (stereo not shown) [Compound 29c] , thanks.
27.7

---

target: ERβ (Homo sapiens, UniProt Q92731); test: ER transcriptional activity; type: cell-based; details: with 10 nmol/L 17β-estradiol
Sequence (Q92731 whole entry): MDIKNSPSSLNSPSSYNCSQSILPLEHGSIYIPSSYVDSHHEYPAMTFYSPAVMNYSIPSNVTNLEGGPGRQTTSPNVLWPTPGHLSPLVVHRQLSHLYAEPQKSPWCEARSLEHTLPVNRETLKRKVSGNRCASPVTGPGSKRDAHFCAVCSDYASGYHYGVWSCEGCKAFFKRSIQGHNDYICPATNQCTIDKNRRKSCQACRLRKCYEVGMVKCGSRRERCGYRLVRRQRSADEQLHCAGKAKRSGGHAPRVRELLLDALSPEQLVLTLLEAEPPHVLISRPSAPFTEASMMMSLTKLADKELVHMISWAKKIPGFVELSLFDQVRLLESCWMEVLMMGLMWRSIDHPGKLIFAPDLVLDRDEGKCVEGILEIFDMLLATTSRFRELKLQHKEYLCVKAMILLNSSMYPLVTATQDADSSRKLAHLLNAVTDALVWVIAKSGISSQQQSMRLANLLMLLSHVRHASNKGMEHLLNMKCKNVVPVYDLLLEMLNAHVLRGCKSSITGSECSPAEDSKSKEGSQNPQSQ
Provide the recorded Antagonist mode ERβ Eff (%E2) for the entries that follow.
# number only, unit %E2 dropped from output

Need Antagonist mode ERβ Eff (%E2) of CC/C(=C(\c1ccc(O)cc1)c1ccc(OCCN(C)C)cc1)c1ccccc1 [Compound 4-OHT, 4-hydroxytamoxifen, reference compound] , thanks.
11

What would you report for CCN(c1ccc(O)cc1)S(=O)(=O)C1CC2OC1C(c1ccc(O)cc1)=C2c1ccc(NC(=O)C=C(C)C)cc1 (centres unmarked) [Compound 29i] ?
78

What would you report for C[C@]12CC[C@@H]3c4ccc(O)cc4C[C@@H](CCCCCCCCC[S+]([O-])CCCC(F)(F)C(F)(F)F)[C@H]3[C@@H]1CC[C@@H]2O (some centres unmarked) [Ful, Fulvestrant, reference compound] ?
73

What would you report for CC(C)=CC(=O)Nc1ccc(C2=C(c3ccc(O)cc3)C3OC2CC3S(=O)(=O)N(CC(F)(F)F)c2ccc(O)cc2)cc1 (centres unmarked) [Compound 29c] ?
27

What would you report for COc1ccc(N(CC(F)(F)F)S(=O)(=O)C2CC3OC2C(c2ccc(O)cc2)=C3c2ccc(NC(=O)C=C(C)C)cc2)cc1 (centres unmarked) [Compound 29f] ?
13

---

test: PK studies in mice; assay type: in vivo, BALB/c female mice; settings: female, BALB/c, mouse, plasma, ip, 4 mg/kg
measurement_label: Cmax (ng/mL)
# number only, unit ng/mL dropped from output

Need Cmax of CC(C)=CC(=O)Nc1ccc(C2=C(c3ccc(O)cc3)C3OC2CC3S(=O)(=O)N(CC(F)(F)F)c2ccc(O)cc2)cc1 (stereo not shown) [Compound 29c] , thanks.
352

---

experiment: PK studies in mice; format: in vivo, BALB/c female mice; conditions: female, BALB/c, mouse, plasma, ip, 4 mg/kg
measurement_label: half-life (h)
# number only, unit h dropped from output

Need half-life of CC(C)=CC(=O)Nc1ccc(C2=C(c3ccc(O)cc3)C3OC2CC3S(=O)(=O)N(CC(F)(F)F)c2ccc(O)cc2)cc1 (stereo not shown) [Compound 29c] , thanks.
6.38

---

Target: ERα (Homo sapiens, UniProt P03372)
Sequence (P03372 1-595): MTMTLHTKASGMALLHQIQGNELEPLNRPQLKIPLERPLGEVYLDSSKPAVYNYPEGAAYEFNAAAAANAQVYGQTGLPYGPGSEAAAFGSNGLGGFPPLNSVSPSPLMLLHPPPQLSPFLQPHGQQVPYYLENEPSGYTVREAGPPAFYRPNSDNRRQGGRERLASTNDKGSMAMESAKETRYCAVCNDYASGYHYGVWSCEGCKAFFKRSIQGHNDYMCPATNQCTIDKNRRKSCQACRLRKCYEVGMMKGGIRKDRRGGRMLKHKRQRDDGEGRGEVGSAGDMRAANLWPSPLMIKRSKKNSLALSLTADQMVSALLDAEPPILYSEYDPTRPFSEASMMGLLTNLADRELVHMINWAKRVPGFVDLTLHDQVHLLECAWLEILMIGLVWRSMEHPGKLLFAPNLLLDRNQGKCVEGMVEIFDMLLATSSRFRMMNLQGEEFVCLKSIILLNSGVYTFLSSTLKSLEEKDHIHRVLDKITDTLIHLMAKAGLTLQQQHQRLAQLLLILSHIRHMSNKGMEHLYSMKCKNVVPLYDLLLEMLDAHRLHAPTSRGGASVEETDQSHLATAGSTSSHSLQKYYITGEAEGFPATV
Assay: cell-based
Details: read-out: Agonist mode ERα EC50; HEK-293T luciferase
measurement_label: EC50
Quick note: unit goes after the number.

Need EC50 of COc1ccc(N(CC(F)(F)F)S(=O)(=O)C2CC3OC2C(c2ccc(O)cc2)=C3c2ccc(NC(=O)C=C(C)C)cc2)cc1 (stereo not shown) [Compound 29f] , thanks.
4.91 µM

---

tested on: MCF-7 cells; assay: Cell viability assay; type: cell-based, human; conditions: Homo sapiens, MCF7, 72 h, read-out: MCF-7 IC50
pIC50: −log10 of the molar value.
Outcome label depends on pIC50 relative to 6: at/above gives Condition met, below gives Condition not met.

Tell me whether pIC50 is at least 6 here: C/C=C/C(=O)Nc1ccc(C2=C(c3ccc(O)cc3)C3OC2CC3S(=O)(=O)N(CC(F)(F)F)c2ccc(O)cc2)cc1 (stereo not drawn) [Compound 29b]
Condition met

What would you report for C#CC(=O)Nc1ccc(OS(=O)(=O)C2CC3OC2C(c2ccc(O)cc2)=C3c2ccc(O)cc2)cc1 (stereo not drawn) [Compound 26d] ?
Condition not met

What would you report for C/C=C/C(=O)Nc1ccc(OS(=O)(=O)C2CC3OC2C(c2ccc(O)cc2)=C3c2ccc(O)cc2)cc1 (stereo not drawn) [Compound 26b] ?
Condition not met

What would you report for CC(C)=CC(=O)Nc1ccc(OS(=O)(=O)C2CC3OC2C(c2ccc(O)cc2)=C3c2ccc(O)cc2)cc1 (stereo not drawn) [Compound 26c] ?
Condition not met

What would you report for CC(C)=CC(=O)Nc1ccc(C2=C(c3ccc(O)cc3)C3OC2CC3S(=O)(=O)N(CC(F)(F)F)c2ccc(F)cc2)cc1 (stereo not drawn) [Compound 29g] ?
Condition met

---

test system: T-47D^D538G cells; experiment: Cell viability assay; type: cell-based, human; conditions: Homo sapiens, 72 h, read-out: T-47D^D538G IC50
Each record's IC50 is compared with low class: < 5 µM; middle class: ≥ 5 µM and < 9 µM; high class: ≥ 9 µM to give its class.

Hello team, could you let me know which band the following compound falls into: O=C(CCl)Nc1ccc(C2=C(c3ccc(O)cc3)C3CC(S(=O)(=O)Oc4ccccc4)C2O3)cc1 (centres unmarked) [Compound 28d]
high class

What would you report for O=C(CCl)Nc1ccc(OS(=O)(=O)C2CC3OC2C(c2ccc(O)cc2)=C3c2ccc(O)cc2)cc1 (centres unmarked) [Compound 26e] ?
middle class

What would you report for C/C=C/C(=O)Nc1ccc(OS(=O)(=O)C2CC3OC2C(c2ccc(O)cc2)=C3c2ccc(O)cc2)cc1 (centres unmarked) [Compound 26b] ?
high class

What would you report for C#CC(=O)Nc1ccc(OS(=O)(=O)C2CC3OC2C(c2ccc(O)cc2)=C3c2ccc(O)cc2)cc1 (centres unmarked) [Compound 26d] ?
high class

What would you report for C/C=C/C(=O)Nc1ccc(C2=C(c3ccc(O)cc3)C3OC2CC3S(=O)(=O)Oc2ccccc2)cc1 (centres unmarked) [Compound 28b] ?
high class

What would you report for CCN(c1ccc(O)cc1)S(=O)(=O)C1CC2OC1C(c1ccc(O)cc1)=C2c1ccc(NC(=O)C=C(C)C)cc1 (centres unmarked) [Compound 29i] ?
low class

What would you report for CC(C)=CC(=O)Nc1ccc(C2=C(c3ccc(O)cc3)C3OC2CC3S(=O)(=O)Oc2ccccc2)cc1 (centres unmarked) [Compound 28c] ?
high class

What would you report for C/C=C/C(=O)Nc1ccc(C2=C(c3ccc(O)cc3)C3OC2CC3S(=O)(=O)N(CC(F)(F)F)c2ccc(O)cc2)cc1 (centres unmarked) [Compound 29b] ?
high class

What would you report for O=C(CBr)Nc1ccc(C2=C(c3ccc(O)cc3)C3OC2CC3S(=O)(=O)Oc2ccccc2)cc1 (centres unmarked) [Compound 28e] ?
high class

What would you report for CC(C)=CC(=O)Nc1ccc(C2=C(c3ccc(O)cc3)C3OC2CC3S(=O)(=O)N(CC(F)(F)F)c2ccc(F)cc2)cc1 (centres unmarked) [Compound 29g] ?
middle class

What would you report for CCN(c1ccc(OC)cc1)S(=O)(=O)C1CC2OC1C(c1ccc(O)cc1)=C2c1ccc(NC(=O)C=C(C)C)cc1 (centres unmarked) [Compound 29j] ?
middle class

What would you report for Nc1ccc(C2=C(c3ccc(O)cc3)C3OC2CC3S(=O)(=O)N(CC(F)(F)F)c2ccc(O)cc2)cc1 (centres unmarked) [Compound 29l] ?
high class

What would you report for CC(C)=CC(=O)Nc1ccc(C2=C(c3ccc(O)cc3)C3OC2CC3S(=O)(=O)N(CC(F)(F)F)c2ccc(O)cc2)cc1 (centres unmarked) [Compound 29c] ?
low class

What would you report for CC(C)=CC(=O)Nc1ccc(C2=C(c3ccc(O)cc3)C3OC2CC3S(=O)(=O)N(CC(F)(F)F)c2cccc(O)c2)cc1 (centres unmarked) [Compound 29h] ?
low class

What would you report for C[C@]12CC[C@@H]3c4ccc(O)cc4C[C@@H](CCCCCCCCC[S+]([O-])CCCC(F)(F)C(F)(F)F)[C@H]3[C@@H]1CC[C@@H]2O (some centres unmarked) [Ful, Fulvestrant, reference compound] ?
low class

What would you report for COc1ccc(N(CC(F)(F)F)S(=O)(=O)C2CC3OC2C(c2ccc(O)cc2)=C3c2ccc(NC(=O)C=C(C)C)cc2)cc1 (centres unmarked) [Compound 29f] ?
middle class

What would you report for O=C(CBr)Nc1ccc(OS(=O)(=O)C2CC3OC2C(c2ccc(O)cc2)=C3c2ccc(O)cc2)cc1 (centres unmarked) [Compound 26f] ?
high class

What would you report for CC(C)=CC(=O)Nc1ccc(C2=C(c3ccc(O)cc3)C3CC(S(=O)(=O)Oc4ccc(O)cc4)C2O3)cc1 (centres unmarked) [Compound 28f] ?
high class

What would you report for C=CC(=O)Nc1ccc(C2=C(c3ccc(O)cc3)C3OC2CC3S(=O)(=O)Oc2ccccc2)cc1 (centres unmarked) [Compound 28a] ?
high class

What would you report for C=CC(=O)Nc1ccc(OS(=O)(=O)C2CC3OC2C(c2ccc(O)cc2)=C3c2ccc(O)cc2)cc1 (centres unmarked) [Compound 26a] ?
high class

What would you report for CC(C)=CC(=O)Nc1ccc(C2=C(c3ccc(O)cc3)C3CC(S(=O)(=O)N(CC(F)(F)F)c4ccccc4)C2O3)cc1 (centres unmarked) [Compound 29e] ?
middle class

What would you report for CC(C)=CC(=O)Nc1ccc(C2=C(c3ccc(O)cc3)C3CC(S(=O)(=O)N(CC(F)(F)F)c4ccc(C)cc4)C2O3)cc1 (centres unmarked) [Compound 29d] ?
high class

What would you report for CC(C)CC(=O)Nc1ccc(C2=C(c3ccc(O)cc3)[C@H]3O[C@@H]2CC3S(=O)(=O)N(CC(F)(F)F)c2ccc(O)cc2)cc1 (mixture of isomers) [Compound 29k] ?
high class

What would you report for C=CC(=O)Nc1ccc(C2=C(c3ccc(O)cc3)C3OC2CC3S(=O)(=O)N(CC(F)(F)F)c2ccc(O)cc2)cc1 (centres unmarked) [Compound 29a] ?
middle class

Origin of measurements: paper PMC10692362
